# EXPERIMENTAL SYSTEM: ~100 representative kinases (Homo sapiens, UniProt P17948)
# Construct: Recombinant protein kinase domains with a concentration of 2 μM
# Sequence (P17948 27-1338): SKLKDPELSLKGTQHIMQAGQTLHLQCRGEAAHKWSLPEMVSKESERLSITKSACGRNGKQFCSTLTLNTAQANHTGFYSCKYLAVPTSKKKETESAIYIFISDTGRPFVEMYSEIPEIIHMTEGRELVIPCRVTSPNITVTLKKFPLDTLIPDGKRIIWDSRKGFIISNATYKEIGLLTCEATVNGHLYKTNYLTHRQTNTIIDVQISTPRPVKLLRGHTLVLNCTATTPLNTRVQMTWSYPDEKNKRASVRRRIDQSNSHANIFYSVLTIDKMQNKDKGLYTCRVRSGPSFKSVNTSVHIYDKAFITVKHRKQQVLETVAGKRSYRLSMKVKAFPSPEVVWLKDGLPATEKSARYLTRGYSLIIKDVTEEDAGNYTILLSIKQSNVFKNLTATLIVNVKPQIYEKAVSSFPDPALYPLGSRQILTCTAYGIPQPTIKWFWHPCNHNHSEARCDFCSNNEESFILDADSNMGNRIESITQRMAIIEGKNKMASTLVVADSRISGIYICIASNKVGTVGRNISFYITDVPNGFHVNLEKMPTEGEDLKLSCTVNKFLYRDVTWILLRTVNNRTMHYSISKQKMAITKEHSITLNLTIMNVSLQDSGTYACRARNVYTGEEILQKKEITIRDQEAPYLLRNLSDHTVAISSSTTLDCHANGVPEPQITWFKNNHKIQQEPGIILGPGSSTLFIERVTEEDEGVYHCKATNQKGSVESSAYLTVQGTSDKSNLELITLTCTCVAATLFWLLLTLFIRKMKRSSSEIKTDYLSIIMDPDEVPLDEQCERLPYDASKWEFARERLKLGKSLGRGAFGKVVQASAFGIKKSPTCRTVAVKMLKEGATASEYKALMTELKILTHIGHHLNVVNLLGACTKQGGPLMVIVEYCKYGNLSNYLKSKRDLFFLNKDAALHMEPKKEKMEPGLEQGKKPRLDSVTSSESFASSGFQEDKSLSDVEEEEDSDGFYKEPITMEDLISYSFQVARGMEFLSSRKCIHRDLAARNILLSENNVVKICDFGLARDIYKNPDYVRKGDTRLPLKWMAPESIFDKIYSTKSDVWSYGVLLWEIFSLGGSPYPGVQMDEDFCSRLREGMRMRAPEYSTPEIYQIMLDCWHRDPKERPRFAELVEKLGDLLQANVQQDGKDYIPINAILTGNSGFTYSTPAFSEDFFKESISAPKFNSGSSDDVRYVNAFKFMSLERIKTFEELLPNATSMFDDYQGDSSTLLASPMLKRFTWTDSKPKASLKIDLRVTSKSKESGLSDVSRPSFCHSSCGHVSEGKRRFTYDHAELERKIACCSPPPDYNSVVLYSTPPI
# TEST METHOD NOTES: DSF 100 kinase selectivity screen;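 note: compound tested at 20 µM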
# Assay type: binding
# EXPERIMENTAL CONDITIONS: protein FLT1; average of three replicates
# Protocol: Recombinant protein kinase domains with a concentration of 2 μM were mixed with a 20 μM compound solution in dimethyl sulfoxide (DMSO), 20 mM Hepes (pH 7.5), and 500 mM NaCl. SYPRO Orange (5000×, Invitrogen) was added as a fluorescence probe (1μl/ml). Subsequently, temperature-dependent protein unfolding profiles were measured using the QuantStudio 5 realtime PCR machine (Thermo Fisher Scientific, Waltham, MA, USA). […] The temperature was raised with a step rate of 3°C/min. […]
ASSAY METRIC: dTm (K)

* Cc1ccc(-n2nc(C(C)(C)C)cc2NC(=O)Nc2cccc(-c3c[nH]c4ncnc(N5CCOCC5)c34)c2)cc1 [Compound 29] | 12.63
* Cc1cc(F)ccc1NC(=O)C1(C(=O)Nc2cccc(-c3c[nH]c4ncnc(N5CCOCC5)c34)c2)CC1 [Compound 24] | 4.10
* O=C(Nc1cccc(-c2c[nH]c3ncnc(N4CCOCC4)c23)c1)C1(C(=O)Nc2cccc3c2CCC3)CC1 [Compound 11] | 1.96

P = Cc1cc(NC(=O)C2(C(=O)Nc3cccc(-c4c[nH]c5ncnc(N6CCOCC6)c45)c3)CC2)ccc1F [Compound 20]
Q = O=C(Nc1ccccc1)C1(C(=O)Nc2cccc(-c3c[nH]c4ncnc(N5CCOCC5)c34)c2)CC1 [Compound 12]
R = O=C(Nc1cccc(-c2c[nH]c3ncnc(N4CCOCC4)c23)c1)C1(C(=O)Nc2ccc(F)c(Cl)c2)CC1 [Compound 18]
Data request: Order each entry by recorded dTm, climbing from the minimum. List the labels according to the requested ordering.
Data returned: P, R, Q

A = Cc1ccc(C(=O)Nc2ccc(CN3CCN(C)CC3)c(C(F)(F)F)c2)cc1C#Cc1c[nH]c2ncnc(N3CCOCC3)c12 [Compound 1]
B = O=C(Nc1cccc(-c2c[nH]c3ncnc(N4CCOCC4)c23)c1)C1(C(=O)Nc2ccc(F)c(Br)c2F)CC1 [Compound 26]
Data request: I'd appreciate it if you could identify which of A and B has the greater dTm. Could you answer with the label of the item you picked?
Data returned: A

1 = COc1cc(NC(=O)C2(C(=O)Nc3cccc(-c4c[nH]c5ncnc(N6CCOCC6)c45)c3)CC2)ccc1F [Compound 21]
2 = Cc1cc(NC(=O)C2(C(=O)Nc3ccc(F)cc3)CC2)cc(-c2c[nH]c3ncnc(N4CCOCC4)c23)c1 [Compound 6]
3 = Cc1ccc(-n2nc(C(C)(C)C)cc2NC(=O)Nc2cccc(-c3c[nH]c4nc(Cl)nc(N5CCOCC5)c34)c2)cc1 [Compound 30]
Data request: # sort list by recorded dTm, greatest to least List the labels according to the requested ordering.
Data returned: 3, 1, 2

A = CC(=O)N1CCN(c2nc(Cl)nc3[nH]cc(-c4cccc(NC(=O)Nc5cc(C(C)(C)C)nn5-c5ccc(C)cc5)c4)c23)CC1 [Compound 31]
B = O=C(Nc1cccc(-c2c[nH]c3ncnc(N4CCOCC4)c23)c1)c1cccn(-c2ccc(F)cc2)c1=O [Compound 4]
Data request: I'd appreciate it if you could identify which of A and B has the greater dTm. Could you answer with the label of the item you picked?
Data returned: A
